Assign IC50 to each entry below.
system: GABAa receptor
protocol: GABAa receptor binding assay: inhibition of 3H-RO15-1788 (3H-Flumazenil) binding to rat cortical tissue
condition.notes: 0.5 nM 3H-RO15-1788, 30 min at 4° C., nonspecific binding with 1.0 μM diazepam
Please make sure the unit comes right after the number.

Look up IC50 with GABAa receptor for this molecule: COc1ccc(-c2cnc3[nH]c4c(c3n2)CCCC4)c(F)c1 [Compound 11]
29 nM

Form: Entry = COc1ccc(F)c(-c2cnc3[nH]c4c(c3n2)CCCC4)c1 [Compound 1] | System = GABAa receptor | IC50 = ____
200 nM

Checklist item: IC50 tested on GABAa receptor, entry Fc1ccccc1-c1cnc2[nH]c3c(c2n1)CCCC3 [Compound 5] , value?
45 nM

For GABAa receptor, provide IC50 of COc1ccc(-c2cnc3[nH]c4ccccc4c3n2)c(F)c1 [Compound 12] please.
533 nM
